B1: SCARA5 (parent)
chain: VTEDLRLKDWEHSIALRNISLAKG

Variants of: B1
method_notes: protein stability index of a GFP-peptide fusion (GPS, HEK-293T) (PSI 1-6); higher = more stable;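 also: lentivirally expressed fusions sorted by FACS into six bins by GFP to DsRed ratio, PSI derived from sequencing read proportions per bin multiplied by bin number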
stated_conditions: c terminus: a fixed tail appended
Label True when protein stability index is at or above 3; anything below gets False.

>>> print(df.to_string())
   alteration    cat
0         L5T   True
1        S13E   True
2         T2F  False
3         K8P   True
4        G24Y   True
5        S20N   True
6         V1C  False
7        S20D   True
8        R17Y  False
9        N18P  False

Alright, here's another variant for you.
stdin: Entry K8S : is its protein stability index no less than 3?
stdout: True

The measured values listed here are drawn from the supplement of paper PMC10567573.
